Items are presented alongside their recorded pIC50.
Biological target: human thrombin (Homo sapiens)
Please note pIC50 is a logarithmic value: minus log10 of concentration in mol/L. Answer with that number alone.

COMPOUND | SUBJECT_OF_TEST | pIC50
COc1cccc(CCNC(=O)C2(C(=O)N[C@@H](CCCNC(=N)N)B(O)O)CCCC2)c1.O=S(=O)(O)c1ccccc1 [Ex. 94, benzenesulfonate] | human thrombin (Homo sapiens) | 8.41
COC12CCC(c3cccc(C(=O)N[C@@H](CCCNC(=N)N)B(O)O)c3)(CC1)CC2.Cl [Ex. 51, hydrochloride] | human thrombin (Homo sapiens) | 8.57
N=C(N)NCCC[C@H](NC(=O)C1(C(=O)NCc2ccccc2)CCCC1)B(O)O.O=S(=O)(O)c1ccccc1 [Ex. 22, benzenesulfonate] | human thrombin (Homo sapiens) | 8.31

Now for a further compound.
Q) Under human thrombin (Homo sapiens), report pIC50 for Cl.N=C(N)NCCC[C@H](NC(=O)c1ccc(C23CCC(O)(CC2)CC3)cc1)B(O)O [Ex. 12, hydrochloride]
A) 8.18

Reference source for all entries: patent US5814622A
